Provenance of the data: ChEMBL document CHEMBL1151222

tested on: Rattus norvegicus; experiment: Metabolic stability in Sprague-Dawley rat assessed as conversion to isohydroxymatairesinol level at 50 mg/kg, po after 48 hrs; assay type: ADME, organism-based; set-up: dose 50 mg/kg, route oral; settings: in vivo

molecule	Activity [nmol]
COc1cc(C[C@H]2C(=O)O[C@H](c3ccc(O)c(OC)c3)[C@H]2CO)ccc1O [ISOHYDROXYMATAIRESINOL]	39

----------
test system: Rattus norvegicus; test: Metabolic stability in Sprague-Dawley rat assessed as conversion to allo-hydroxymatairesinol level at 50 mg/kg, po after 48 hrs; format: ADME, organism-based; design: dose 50 mg/kg, route oral; conditions: in vivo
readoutType: Activity (nmol)

cpdSmiles	recordedMeasurement
COc1cc(C[C@H]2C(=O)OC[C@@H]2[C@@H](O)c2ccc(O)c(OC)c2)ccc1O	1400
